Origin of values: PubChem BioAssay (NCI)

- Tested on: HOP-62 NSCLC
- procedureDetails: NCI tumour cell line growth inhibition, 48 h
observable: TGI

In the examples that follow, each entry is paired with its recorded TGI.
| compound | targetEntity | TGI |
| --- | --- | --- |
| CCCC(=O)OCC(O)CO (configuration not stated) | HOP-62 NSCLC | > 5000 µM |
| O=c1cc(-c2nc3ccccc3[nH]2)[nH]c2nc(-c3nc4ccccc4[nH]3)cc(-c3ccc(Cl)cc3)c12 | HOP-62 NSCLC | 54.7 µM |
| O=C1C=C(Nc2ccccc2C(=O)CC(=O)C(=O)Nc2ccc(Cl)c(Cl)c2)c2ccccc2C1=O | HOP-62 NSCLC | > 100 µM |
| CC1=NN(c2ccccc2)C(=O)C1=C1SCCCS1 | HOP-62 NSCLC | > 100 µM |
| Cc1cc(=O)[nH]c(CNC(=O)Cc2ccccc2)n1 | HOP-62 NSCLC | > 100 µM |

input: Looking for the measured TGI of O=c1c2ncn(CCCl)c2n(-c2ccccc2)c(=S)n1-c1ccccc1 , can you help?
output: > 100 µM

input: Looking for the measured TGI of CCCCCCCCCC(=O)CC(=O)c1c(O)cc(O)cc1O , can you help?
output: 32.5 µM

input: Looking for the measured TGI of Oc1[nH]c2ccc(Cl)cc2c1/C=c1/ccc2c(c1)N=C(c1cc(F)cc(F)c1)N=2 , can you help?
output: 45 µM

input: Looking for the measured TGI of COc1cc(/C=C/C(=O)c2ccc(Nc3nc(Nc4ccccc4)nc(Nc4ccc(Cl)cc4)n3)cc2)cc(OC)c1OC , can you help?
output: > 32.5 µM

* * *

- Test system: RXF 393 renal
- procedureDetails: NCI tumour cell line growth inhibition, 48 h
Measured log10(TGI) by item
Please keep in mind that the values are log10 of TGI expressed in µM.

| molecule | observable | reported |
| --- | --- | --- |
| CC[C@@]1(OC(=O)CN)C(=O)OCc2c1cc1n(c2=O)Cc2cc3c(N)c4c(cc3nc2-1)OCO4 | log10(TGI) | -0.80 |

input: Looking for the measured log10(TGI) of O=C(CC1(O)C(=O)Nc2c(Cl)ccc(Cl)c21)c1ccc(C2CC2)cc1 (configuration not stated) , can you help?
output: 0.42

input: Looking for the measured log10(TGI) of C[C@@H](Oc1cc(-c2cnn(C3CC4(CCCNC4)C3)c2)cnc1N)c1c(Cl)ccc(F)c1Cl (some centres not stated) , can you help?
output: 0.42

input: Looking for the measured log10(TGI) of CC1OC(OC2C(O[C@@H]3C[C@@H]4CC[C@@H]5[C@H](CC[C@]6(C)[C@@H]7[C@H](C[C@@H]56)O[C@]5(CC[C@@H](C)CO5)[C@H]7C)[C@@]4(C)C[C@H]3O)OC(CO)C(OC3OC(CO)C(O)C(O)C3O)C2O)C(O)C(O)C1O (some centres not stated) , can you help?
output: 0.55

input: Looking for the measured log10(TGI) of Cc1cc2c(C(C)C)c(O)c(O)c(C=O)c2c(O)c1-c1c(C)cc2c(C(C)C)c(O)c(O)c(C=O)c2c1O (tested in a mixture with another compound) , can you help?
output: 0.40

input: Looking for the measured log10(TGI) of CO[C@H](c1ccccc1)[C@H](C)N(C)c1ccc2ccccc2c1C1=NC(C)(C)CO1 , can you help?
output: 1.44

input: Looking for the measured log10(TGI) of O=C1N[C@@H]2c3c(Br)sc(Br)c3C(=O)[C@@H]2N1 , can you help?
output: 1.16

input: Looking for the measured log10(TGI) of CCCOCN1COCN=C1NC#N , can you help?
output: 1.47

input: Looking for the measured log10(TGI) of COc1cc(NCc2ccc3n2-c2ccccc2OC3)cc(OC)c1OC , can you help?
output: 1.94

input: Looking for the measured log10(TGI) of COc1ccc(C2C(Cl)C(=O)N2NC(=O)c2ccc(N)cc2)cc1OC (configuration not stated) , can you help?
output: 1.48

input: Looking for the measured log10(TGI) of CC1(C)CC2CC(C)(CN2c2ncnc3ccc(Br)cc23)C1 (configuration not stated) , can you help?
output: 1.37

input: Looking for the measured log10(TGI) of Nn1c(N=Nc2c(O)[nH]c3ccccc23)n[nH]c1=S , can you help?
output: 1.98

input: Looking for the measured log10(TGI) of C/C(=N\Nc1cccc(Cl)n1)c1ccccn1 , can you help?
output: 1.21

input: Looking for the measured log10(TGI) of O=C1c2ccccc2C(=O)c2c(NC(=O)c3ccc4c5c(ncnc35)-c3ccccc3C4=O)cccc21 , can you help?
output: 1.69

input: Looking for the measured log10(TGI) of CCCCCCCCCC(=O)CC(=O)c1c(O)cc(O)cc1O , can you help?
output: 1.49

input: Looking for the measured log10(TGI) of CC(C)(C)c1cc(C(C)(C)C)c2sc(=S)oc2c1O , can you help?
output: 1.16

input: Looking for the measured log10(TGI) of CCCc1ccc(OCC(=O)N/N=C/c2c(-c3ccccc3)[nH]c3ccccc23)cc1 , can you help?
output: 1.46

* * *

- Tested on: SK-MEL-5 melanoma
- procedureDetails: NCI tumour cell line growth inhibition, 48 h
Measured TGI by item

In the examples that follow, each entry is paired with its recorded TGI.
| molecule | TGI |
| --- | --- |
| CP(C)C.[Ag][I] | 46.4 µM |
| COc1cccc(/C=C2\C(=O)N(C(=O)Cc3ccccc3)N=C2C)c1 | > 100 µM |
| CC(OCc1ccccc1)C(NC(=O)C1CSSCC(NC(=O)C(Cc2ccccc2)NC(=O)OCc2ccccc2)C(=O)NC(Cc2ccccc2)C(=O)NC(Cc2cn(C=O)c3ccccc23)C(=O)NC(CCCCNC(=O)OCc2ccccc2)C(=O)NC(C(C)OCc2ccccc2)C(=O)N1)C(N)=O (stereo unspecified) | > 73.8 µM |
| C=C1CO[C@@H]2C[C@@H]1CC/C(C)=C/CC/C(C)=C/CC[C@@]2(C)O | 34.5 µM |
| c1ccc2c3nnc(c2c1)SCCSCCCSCCS3 | > 100 µM |

input: Looking for the measured TGI of O=C(N/C(=C/c1ccc(Cl)cc1)c1nc2ccccc2c(=O)n1Nc1ccc([N+](=O)[O-])cc1[N+](=O)[O-])c1ccccc1 , can you help?
output: > 100 µM

* * *

- Tested on: HT29 colon
- procedureDetails: NCI tumour cell line growth inhibition, 48 h
observable: TGI

In the examples that follow, each entry is paired with its recorded TGI.
| molecule | TGI |
| --- | --- |
| C/C(=N\Nc1cccc(Cl)n1)c1ccccn1 | > 100 µM |
| COc1cc(NCc2ccc3n2-c2ccccc2OC3)cc(OC)c1OC | > 100 µM |
| CCOC(=O)CC(N1CC1)N1CC1 | > 10 µM |
| Cc1ccc(-c2cc(/C=N/O)on2)cc1 | > 100 µM |
| O=C(/C=C/c1ccc(Cl)c(Cl)c1)C1CCC(Cl)CC1 (stereo unspecified) | 31.7 µM |
| N#CC(c1ccccc1)N(CCc1ccccc1)C(=O)Oc1ccccc1 (stereo unspecified) | > 100 µM |
| COc1ccc2c(c1)CC[C@@H]1[C@@H]2CC[C@]2(C)[C@@H](O)/C(=C/c3ccncc3)C[C@@H]12 | 15 µM |
| Cn1c(N)c(-c2c3ccccc3nc3ccccc23)c(=O)n(C)c1=O | > 100 µM |

input: Looking for the measured TGI of O=C(CCc1cccc(O)c1)NCCc1cccc(OCc2ccccc2)c1 , can you help?
output: 30.7 µM

input: Looking for the measured TGI of COc1ccc(C2C3=C(COC3=O)N(CCO)c3cc4c(cc32)OCCO4)cc1OC (stereo unspecified) , can you help?
output: > 14.9 µM

input: Looking for the measured TGI of Oc1[nH]c2ccccc2c1N=NC(=S)N1CCCC1 , can you help?
output: > 53.5 µM

* * *

- System: HCT-15 colon
- procedureDetails: NCI tumour cell line growth inhibition, 48 h
observable: TGI

In the examples that follow, each entry is paired with its recorded TGI.
| molecule | TGI |
| --- | --- |
| O=C(/N=C/c1c(O)c2ccccc2oc1=O)NC1CCCCC1 | > 100 µM |
| CCOc1ccc2c(c1)NC(=O)C(C1OC(c3ccccc3)=CC1=O)S2 (stereo unspecified) | 69.2 µM |
| CC(=O)OCC(=O)C1(O)C(C)CC2C3C=C(C)C4=Cc5c(cnn5-c5ccccc5)CC4(C)C3C(O)CC21C (stereo unspecified) | 2.54 µM |
| COc1cccc2c1C(=O)c1c(O)c3c(c(O)c1C2=O)C[C@@](O)(/C(C)=N/NC(=O)c1ccc(Cl)c(Cl)c1)C[C@@H]3OC1CC(N)C(O)C(C)O1 (stereo partly specified) | 1.16 µM |
| N#C/C(=C\c1ccc(O)cc1O)C(N)=O | > 100 µM |

input: Fill in the recorded TGI for this molecule, with HCT-15 colon as test system: CC[N+](CC)(CC)/C(=N/S(=O)(=O)c1cc(C)c(Cl)cc1S)[N-]S(=O)(=O)c1ccc(Cl)cc1
output: > 100 µM

input: Fill in the recorded TGI for this molecule, with HCT-15 colon as test system: CC1=NN(c2ccccc2)C(=O)C1=C1SCCCS1
output: > 100 µM
